- System: U2OS
- Assay: 72-h MTT cytotoxicity assay, U2OS
- Type: cell-based
- Condition Set: Homo sapiens, Osteosracoma, read-out: Anti-proliferative activity, 72-h MTT IC50
Attribute Measured: IC50 (µM)

CN(c1ccc(F)cc1)S(=O)(=O)c1cc([N+](=O)[O-])c(Cl)s1 ... 8.8
O=[N+]([O-])c1cc(S(=O)(=O)Nc2ccc(C(F)(F)F)cc2)sc1Cl ... 10.2
O=[N+]([O-])c1cc(S(=O)(=O)Nc2ccc(F)cc2)sc1Cl ... 8.2
O=[N+]([O-])c1cc(S(=O)(=O)Nc2ccc(Cl)cc2)sc1Cl ... 6.2

====

- Tested System: HDM2 (Homo sapiens)
- Construct: Recombinant HDM2 (1.5 μg per well) in TBS-BSA buffer
- Sequence (Q00987 whole entry): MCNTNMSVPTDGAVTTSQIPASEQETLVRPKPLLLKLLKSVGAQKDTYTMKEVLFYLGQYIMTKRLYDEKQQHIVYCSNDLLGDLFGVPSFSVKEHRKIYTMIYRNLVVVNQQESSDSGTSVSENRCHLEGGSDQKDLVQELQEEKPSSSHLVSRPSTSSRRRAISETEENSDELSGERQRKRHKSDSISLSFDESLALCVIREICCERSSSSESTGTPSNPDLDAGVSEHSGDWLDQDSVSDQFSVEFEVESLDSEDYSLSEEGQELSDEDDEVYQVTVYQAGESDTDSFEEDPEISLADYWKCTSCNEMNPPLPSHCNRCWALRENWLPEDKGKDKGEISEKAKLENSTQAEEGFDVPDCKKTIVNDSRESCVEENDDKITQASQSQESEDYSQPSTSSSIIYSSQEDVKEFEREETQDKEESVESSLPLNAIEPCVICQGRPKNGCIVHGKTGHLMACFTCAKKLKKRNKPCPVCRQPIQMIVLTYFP
- Assay: Fluorescence polarisation competitive HDM2 binding assay
- Condition Set: fluorescence polarisation assay; Table 3; read-out: In vitro competitive HDM2 binding assay IC50
Attribute Measured: IC50 (µM)

COc1ccc(NS(=O)(=O)c2cc([N+](=O)[O-])c(Cl)s2)cc1 [Compound 61] ... 45
CC(Cc1c[nH]c2ccccc12)NS(=O)(=O)c1cc([N+](=O)[O-])c(Cl)s1 (stereo not drawn) [Compound 49] ... 46.3
O=[N+]([O-])c1cc(S(=O)(=O)NCc2ccc(F)cc2)sc1Cl [Compound 45] ... 16
CN(c1ccc(F)cc1)S(=O)(=O)c1cc([N+](=O)[O-])c(Cl)s1 [Compound 7] ... 15.4
O=[N+]([O-])c1cc(S(=O)(=O)NCc2cc(Cl)cc(Cl)c2)sc1Cl [Compound 54] ... 20.2
O=[N+]([O-])c1cc(S(=O)(=O)Nc2cc(Cl)cc(Cl)c2)sc1Cl [Compound 39] ... 46.1
O=[N+]([O-])c1cc(S(=O)(=O)Nc2ccc(Cl)cc2)ccc1Cl [Compound 38] ... 231
O=[N+]([O-])c1cc(S(=O)(=O)Nc2ccc(Cl)cc2)sc1Cl [Compound 2] ... 26.4
O=[N+]([O-])c1cc(S(=O)(=O)NCc2ccc(C(F)(F)F)cc2)sc1Cl [Compound 46] ... 11.1

====

- Tested on: A549
- Assay: 72-h MTT cytotoxicity assay, A549
- Format: cell-based
- Condition Set: Homo sapiens, A549, Lung carcinoma, read-out: Anti-proliferative activity, 72-h MTT IC50
Attribute Measured: IC50

O=[N+]([O-])c1cc(S(=O)(=O)Nc2ccc(Cl)cc2)sc1Cl ... 5.2 µM
O=[N+]([O-])c1cc(S(=O)(=O)Nc2ccc(C(F)(F)F)cc2)sc1Cl ... 10 µM
O=[N+]([O-])c1cc(S(=O)(=O)Nc2ccc(F)cc2)sc1Cl ... 5.9 µM
CN(c1ccc(F)cc1)S(=O)(=O)c1cc([N+](=O)[O-])c(Cl)s1 ... 19.3 µM

====

Reported values of pIC50 for individual entries
- Tested on: Nci-H460
- Assay: 72-h MTT cytotoxicity assay, Nci-H460
- Assay type: cell-based
- Condition Set: Homo sapiens, Nci-H460, Large cell lung carcinoma, read-out: Anti-proliferative activity, 72-h MTT IC50
pIC50: −log10 of the molar value.
Attribute Measured: pIC50

CN(c1ccc(F)cc1)S(=O)(=O)c1cc([N+](=O)[O-])c(Cl)s1 ... 5.02
O=[N+]([O-])c1cc(S(=O)(=O)Nc2ccc(F)cc2)sc1Cl ... 5.28
O=[N+]([O-])c1cc(S(=O)(=O)Nc2ccc(Cl)cc2)sc1Cl ... 5.48
O=[N+]([O-])c1cc(S(=O)(=O)Nc2ccc(C(F)(F)F)cc2)sc1Cl ... 5.10
